# target_system: Aromatase (Homo sapiens)
# Sequence (P11511 whole entry): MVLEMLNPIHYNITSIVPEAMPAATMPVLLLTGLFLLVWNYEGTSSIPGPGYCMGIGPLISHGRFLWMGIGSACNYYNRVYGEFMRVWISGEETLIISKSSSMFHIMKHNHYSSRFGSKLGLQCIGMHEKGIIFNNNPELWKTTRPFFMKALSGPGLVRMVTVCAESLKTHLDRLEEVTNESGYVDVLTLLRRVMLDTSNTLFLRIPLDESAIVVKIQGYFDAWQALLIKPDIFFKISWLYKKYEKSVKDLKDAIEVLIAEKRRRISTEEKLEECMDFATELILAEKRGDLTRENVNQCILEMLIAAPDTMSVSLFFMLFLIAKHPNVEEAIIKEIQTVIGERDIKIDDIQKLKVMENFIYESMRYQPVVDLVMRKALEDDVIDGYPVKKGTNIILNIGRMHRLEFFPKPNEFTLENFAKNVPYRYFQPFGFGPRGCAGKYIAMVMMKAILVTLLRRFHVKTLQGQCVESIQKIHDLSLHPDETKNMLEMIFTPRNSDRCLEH
# procedure_summary: Time dependent inactivation of Cytochrome P450 19A1 was obtained by Kitz-Wilson plot
Binary call on kinact: criterion met from 0.001 s⁻¹ upward, criterion not met beneath that.

| molecule | label_value |
| --- | --- |
| CC12CCC3C(C(=O)C=C4C=CCCC43C)C1CCC2=O (stereo not given) | criterion met |
| CC12CCC3C(C(=O)C=C4CCCCC43CO)C1CCC2=O (stereo not given) | criterion not met |
| CC12CCC3C4CCCCC4=CC(=O)C3C1CCC2=O (stereo not given) | criterion met |
| CC12CCC3C(C(=O)C=C4CCCCC43C=O)C1CCC2=O (stereo not given) | criterion met |
| CC12CCC3C(C(=O)C=C4CCCCC43C)C1CCC2=O (stereo not given) | criterion met |

Provenance of the data: ChEMBL document CHEMBL1127575
